src = ChEMBL document CHEMBL5465560

- assayed system: Inhibitor of nuclear factor kappa-B kinase subunit alpha (Homo sapiens)
- Sequence (O15111 whole entry): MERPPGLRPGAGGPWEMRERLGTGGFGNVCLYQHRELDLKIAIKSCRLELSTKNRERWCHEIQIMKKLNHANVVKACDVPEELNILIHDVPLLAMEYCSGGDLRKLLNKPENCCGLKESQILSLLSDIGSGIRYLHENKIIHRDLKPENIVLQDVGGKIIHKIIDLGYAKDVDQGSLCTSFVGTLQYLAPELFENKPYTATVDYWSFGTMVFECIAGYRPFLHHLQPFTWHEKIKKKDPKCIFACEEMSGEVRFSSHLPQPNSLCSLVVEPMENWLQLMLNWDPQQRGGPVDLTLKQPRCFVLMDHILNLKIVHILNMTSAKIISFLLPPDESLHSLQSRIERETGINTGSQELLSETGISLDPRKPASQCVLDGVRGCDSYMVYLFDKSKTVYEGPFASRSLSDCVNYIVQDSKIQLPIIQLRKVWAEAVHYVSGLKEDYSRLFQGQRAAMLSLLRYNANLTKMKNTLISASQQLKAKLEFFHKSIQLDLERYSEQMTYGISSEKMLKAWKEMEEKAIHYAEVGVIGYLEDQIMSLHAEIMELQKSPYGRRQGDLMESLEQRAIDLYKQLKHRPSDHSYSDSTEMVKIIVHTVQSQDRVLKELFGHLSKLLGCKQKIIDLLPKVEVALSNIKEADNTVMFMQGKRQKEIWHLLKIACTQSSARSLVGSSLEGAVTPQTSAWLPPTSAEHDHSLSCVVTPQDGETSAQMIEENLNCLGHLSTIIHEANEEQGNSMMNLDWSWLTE
- assay explanation: Selectivity interaction (Kinase panel (Enzyme activity assay)) EUB0000612a CHUK
pIC50: −log10 of the molar value.
measurement kind: pIC50

Challenge: Provide one value: measured pIC50 of `CCc1cccc(CC)c1NC(=O)c1nn(C)c2c1CCc1cnc(Nc3ccc(C(=O)NC4CCN(C)CC4)cc3OC(F)(F)F)nc1-2`
Response given: < 5.00

* * *

- assayed system: cAMP-dependent protein kinase catalytic subunit alpha (Homo sapiens, UniProt P17612)
- assay explanation: Selectivity interaction (TR-FRET binding assay) EUB0000644a PRKACA
pIC50: −log10 of the molar value.
measurement kind: pIC50

Challenge: Return pIC50 (reported value) for this molecule: CC[C@@H]1CN(C(=O)NCC(F)(F)F)C[C@@H]1c1cnc2cnc3[nH]ccc3n12 [UPADACITINIB]
Response given: < 5.00
